B1: NEK8 (parent)
chain: VTIKHVACGDFFTACLTDRGIIMT

Variants of: B1
measurement-description: protein stability index of a GFP-peptide fusion (GPS, HEK-293T) (PSI 1-6); higher = more stable;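 note: lentivirally expressed fusions sorted by FACS into six bins by GFP to DsRed ratio, PSI derived from sequencing read proportions per bin multiplied by bin number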
test-conditions: c terminus: a fixed tail appended
measure: protein stability index

sequence-change: G9E
result: 2.66

sequence-change: K4F
result: 2.88

sequence-change: V1W
result: 4.31

sequence-change: A7E
result: 2.69

sequence-change: V1E
result: 1.45

sequence-change: V6P
result: 4.25

sequence-change: V1N
result: 2.51

sequence-change: T2S
result: 2.88

sequence-change: I3L
result: 2.32

sequence-change: K4P
result: 2.13

sequence-change: G9T
result: 3.5

sequence-change: C8T
result: 2.44

sequence-change: C8F
result: 2.28

sequence-change: G9C
result: 1.88

sequence-change: V1H
result: 2.87

sequence-change: K4N
result: 2.03

sequence-change: T2Y
result: 3.11

sequence-change: H5C
result: 2.12

sequence-change: V1F
result: 1.99

sequence-change: K4S
result: 2.57

sequence-change: T2C
result: 2

sequence-change: V1Q
result: 1.59

sequence-change: C8A
result: 3.3

sequence-change: K4D
result: 2.87

sequence-change: V6F
result: 2.71

sequence-change: V6R
result: 3.07

sequence-change: G9R
result: 3.64

sequence-change: V6S
result: 2.55

sequence-change: V1K
result: 1.91

sequence-change: I3S
result: 2.69

sequence-change: G9K
result: 2.98

sequence-change: I3F
result: 3.2

sequence-change: T2M
result: 3.25

sequence-change: H5T
result: 3.55

sequence-change: V1A
result: 2.57

sequence-change: K4G
result: 3.43

sequence-change: A7Y
result: 3.2

sequence-change: I3N
result: 2.55

sequence-change: H5W
result: 2.46

sequence-change: V6G
result: 2.57

sequence-change: V1P
result: 1.33

sequence-change: T2G
result: 3.03

sequence-change: T2D
result: 2.1

sequence-change: H5M
result: 5.14

sequence-change: T2I
result: 2.48

sequence-change: K4T
result: 2.17

sequence-change: K4V
result: 1.74

sequence-change: I3H
result: 2.67

sequence-change: A7Q
result: 3.77

sequence-change: V6W
result: 4.09

sequence-change: G9F
result: 2.38

sequence-change: I3Q
result: 2.49

sequence-change: V1T
result: 1.54

sequence-change: C8Y
result: 3.47

sequence-change: A7M
result: 2.95

sequence-change: V6K
result: 2.63

sequence-change: I3R
result: 2.22

sequence-change: I3D
result: 3.11

sequence-change: I3P
result: 2.31

sequence-change: A7T
result: 2.88

sequence-change: K4C
result: 3.59

sequence-change: G9D
result: 3

sequence-change: K4E
result: 1.58

sequence-change: A7L
result: 2.33

sequence-change: K4M
result: 1.33

sequence-change: V1I
result: 2.71

sequence-change: V1Y
result: 3.81

sequence-change: V6L
result: 2.85

sequence-change: T2E
result: 2.31

sequence-change: V1S
result: 3.58

sequence-change: I3V
result: 2.27

sequence-change: K4Y
result: 2.75

sequence-change: I3A
result: 1.28

sequence-change: C8P
result: 2.4

sequence-change: I3Y
result: 2.57

sequence-change: C8L
result: 3.14

sequence-change: C8D
result: 3.33

sequence-change: V6I
result: 3.76

sequence-change: I3K
result: 1.92

sequence-change: A7I
result: 2.61

sequence-change: K4H
result: 2.81

sequence-change: K4A
result: 4.56

sequence-change: V6H
result: 2.85

sequence-change: A7P
result: 1.72

From: the supplement of paper PMC10567573
